Hey, just so you know, these numbers are from paper PMC4081072.

Target: T1, Nrd1 307-491 G407A (Saccharomyces cerevisiae, UniProt P53617 307-491, G407A)
T1 sequence: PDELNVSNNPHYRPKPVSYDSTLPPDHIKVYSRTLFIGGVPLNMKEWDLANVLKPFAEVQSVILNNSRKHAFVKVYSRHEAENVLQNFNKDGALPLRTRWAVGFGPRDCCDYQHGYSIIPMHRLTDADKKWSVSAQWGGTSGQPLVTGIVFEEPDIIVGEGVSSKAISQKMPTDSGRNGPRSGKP
Assay: fluorescence anisotropy; FA: 10 nM RNA, 50 mM sodium phosphate pH 8, 150 mM NaCl, 10 mM beta-mercaptoethanol, 20 C (protein stock in 300 mM NaCl); NMR: same buffer with 300 mM NaCl, 20
Conditions: protein: recombinant; tags: C-terminal His6; label: 5' fluorescein or TAMRA (FA); unlabeled (NMR)
READOUT KIND: Kd (µM)

binder="GUAA (ssRNA)" unit_tag=µM test_result=13.9
